Data origin, for the record: paper PMC11251166

# target_or_test_system: LnaB (Legionella pneumophila, UniProt Q5ZSJ0)
# Sequence (Q5ZSJ0 1-558 limits assumed): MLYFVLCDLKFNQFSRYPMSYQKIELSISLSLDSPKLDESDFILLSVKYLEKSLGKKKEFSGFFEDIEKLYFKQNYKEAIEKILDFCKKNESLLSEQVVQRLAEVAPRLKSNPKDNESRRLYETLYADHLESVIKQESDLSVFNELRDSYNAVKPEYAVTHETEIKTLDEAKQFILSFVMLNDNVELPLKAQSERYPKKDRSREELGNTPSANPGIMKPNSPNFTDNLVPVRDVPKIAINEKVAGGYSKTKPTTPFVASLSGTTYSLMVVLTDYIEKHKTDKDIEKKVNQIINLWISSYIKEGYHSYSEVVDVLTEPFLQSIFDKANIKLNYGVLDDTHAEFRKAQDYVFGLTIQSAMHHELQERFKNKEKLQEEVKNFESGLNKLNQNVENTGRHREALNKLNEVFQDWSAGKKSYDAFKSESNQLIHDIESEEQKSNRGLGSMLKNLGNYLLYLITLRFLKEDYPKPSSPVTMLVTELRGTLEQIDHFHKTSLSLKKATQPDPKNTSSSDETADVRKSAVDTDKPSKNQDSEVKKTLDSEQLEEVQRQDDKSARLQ
property: pKd
The meaning of pKd here: minus log10 of the concentration in molar units.

Enquiry: Tell me reported pKd for Nc1ncnc2c1ncn2[C@@H]1O[C@H](COP(=O)(O)OP(=O)(O)OP(=O)(O)O)[C@@H](O)[C@H]1O , tested with LnaB (Legionella pneumophila, UniProt Q5ZSJ0).
Return: 4.81
